target: ACE from rabbit lung (Oryctolagus cuniculus); construct: ACE from rabbit lung; purchased Sigma Chemical Co; host or cells: rabbit lung tissue; assay: ACE inhibition assay; format: biochemical; settings: synthesized lisinopril; read-out: ACE inhibition IC50
Sequence (P12822 34-1310): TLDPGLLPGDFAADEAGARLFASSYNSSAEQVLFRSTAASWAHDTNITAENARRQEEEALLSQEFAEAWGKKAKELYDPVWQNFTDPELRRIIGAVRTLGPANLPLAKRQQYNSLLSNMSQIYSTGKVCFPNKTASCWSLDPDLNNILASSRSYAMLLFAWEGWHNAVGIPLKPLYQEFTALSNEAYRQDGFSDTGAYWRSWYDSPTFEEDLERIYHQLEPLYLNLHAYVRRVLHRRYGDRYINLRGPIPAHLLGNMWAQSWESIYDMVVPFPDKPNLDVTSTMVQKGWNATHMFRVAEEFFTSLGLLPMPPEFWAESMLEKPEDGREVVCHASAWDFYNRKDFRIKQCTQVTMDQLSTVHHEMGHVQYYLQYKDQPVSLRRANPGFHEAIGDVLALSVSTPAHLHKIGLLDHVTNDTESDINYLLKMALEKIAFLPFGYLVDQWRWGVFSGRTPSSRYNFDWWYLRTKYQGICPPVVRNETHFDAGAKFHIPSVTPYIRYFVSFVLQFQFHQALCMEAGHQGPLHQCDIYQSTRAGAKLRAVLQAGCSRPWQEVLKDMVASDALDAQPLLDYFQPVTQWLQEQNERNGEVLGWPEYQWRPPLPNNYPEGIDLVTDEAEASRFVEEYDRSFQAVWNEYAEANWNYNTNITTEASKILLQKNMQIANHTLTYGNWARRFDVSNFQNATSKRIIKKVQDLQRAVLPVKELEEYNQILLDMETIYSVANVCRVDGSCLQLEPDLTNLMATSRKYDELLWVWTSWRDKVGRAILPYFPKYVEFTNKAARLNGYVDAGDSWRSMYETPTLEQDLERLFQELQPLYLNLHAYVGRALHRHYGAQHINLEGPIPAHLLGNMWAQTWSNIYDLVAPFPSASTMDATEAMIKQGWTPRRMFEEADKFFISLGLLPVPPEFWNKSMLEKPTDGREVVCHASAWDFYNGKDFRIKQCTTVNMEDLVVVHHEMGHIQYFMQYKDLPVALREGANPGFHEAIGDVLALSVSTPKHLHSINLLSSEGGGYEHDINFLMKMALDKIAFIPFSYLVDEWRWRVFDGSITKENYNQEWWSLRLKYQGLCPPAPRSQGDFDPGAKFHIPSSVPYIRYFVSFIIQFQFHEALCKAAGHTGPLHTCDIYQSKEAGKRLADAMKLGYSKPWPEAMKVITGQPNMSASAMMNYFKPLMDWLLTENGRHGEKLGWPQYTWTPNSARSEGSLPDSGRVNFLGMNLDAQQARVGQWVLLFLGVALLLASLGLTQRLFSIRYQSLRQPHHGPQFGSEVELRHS
metric_name: pIC50
pIC50 field: float, defined as -log10 of concentration (mol/L).

# pIC50 of NCCCC[C@H](N[C@@H](CCc1ccccc1)C(=O)O)C(=O)N1CCC[C@H]1C(=O)O [Lisinopril, reference compound] = 8.55

* * *

target: ACE from rabbit lung (Oryctolagus cuniculus); construct: ACE from rabbit lung; purchased Sigma Chemical Co; host or cells: rabbit lung tissue; test: ACE inhibition assay; format: biochemical; settings: commercial lisinopril; read-out: ACE inhibition IC50
metric_name: pIC50
pIC50 field: float, defined as -log10 of concentration (mol/L).

# value of pIC50, ACE from rabbit lung (Oryctolagus cuniculus), item NCCCC[C@H](N[C@@H](CCc1ccccc1)C(=O)O)C(=O)N1CCC[C@H]1C(=O)O [Lisinopril, reference compound] = 8.89

These data points were gathered from patent US8598314B2.
